# TEST: Oral bioavailability and brain penetration in mice
# Type: in vivo
# CONDITION SET: male, OF1/IC, mouse, brain, po, 30 umol/kg, 30 μmol/kg p.o., 8 hour, read-out: Ratio Brain/plasma
METRIC NAME: Kp at 8 h

COMPOUND STRING	MEASURED
c1cc2cc(-c3cnc(O[C@H]4CCN5CCC[C@@H]4C5)nc3)ccc2[nH]1	1.51
C[C@H]1[C@H](Oc2ccc(-c3ccc4[nH]ccc4c3)nn2)C2CCN1CC2	1.17

====

# TEST: Oral bioavailability and brain penetration in mice
# Assay type: in vivo
# CONDITION SET: male, OF1/IC, mouse, brain, po, 30 umol/kg, 30 μmol/kg p.o., 6 hour, read-out: Ratio Brain/plasma

MOLECULE	Kp at 6 h
C[C@H](OC(=O)N[C@@H]1CN2CCC1CC2)c1ccccc1F [Compound A-1]	1.4

====

# TEST: Oral bioavailability and brain penetration in mice
# Assay type: in vivo
# CONDITION SET: male, OF1/IC, mouse, brain, po, 30 umol/kg, 30 μmol/kg p.o., 4 hour, read-out: Ratio Brain/plasma
METRIC NAME: Kp at 4 h

COMPOUND STRING	MEASURED
C[C@H](OC(=O)N[C@@H]1CN2CCC1CC2)c1ccccc1F	1.2
C[C@H]1[C@H](Oc2ccc(-c3ccc4[nH]ccc4c3)nn2)C2CCN1CC2	0.88
c1cc2cc(-c3cnc(O[C@H]4CCN5CCC[C@@H]4C5)nc3)ccc2[nH]1	1.11

====

# TEST: Oral bioavailability and brain penetration in mice
# Type: in vivo
# CONDITION SET: male, OF1/IC, mouse, plasma, po, 30 μmol/kg p.o., 2 hour
This listing pairs molecules with measured concentration at 2 h.
METRIC NAME: concentration at 2 h (nM)

MOLECULE	MEASURED
c1cc2cc(-c3cnc(O[C@H]4CCN5CCC[C@@H]4C5)nc3)ccc2[nH]1 [Compound C-1]	875
C[C@H]1[C@H](Oc2ccc(-c3ccc4[nH]ccc4c3)nn2)C2CCN1CC2 [Compound B-13]	1170

====

# TEST: Oral bioavailability and brain penetration in mice
# Format: in vivo
# CONDITION SET: male, OF1/IC, mouse, brain, po, 30 umol/kg, 30 μmol/kg p.o., 2 hour, read-out: Ratio Brain/plasma
METRIC NAME: Kp at 2 h

COMPOUND STRING	METRIC NAME	MEASURED
c1cc2cc(-c3cnc(O[C@H]4CCN5CCC[C@@H]4C5)nc3)ccc2[nH]1	Kp at 2 h	1.69
C[C@H]1[C@H](Oc2ccc(-c3ccc4[nH]ccc4c3)nn2)C2CCN1CC2	Kp at 2 h	1.07
C[C@H](OC(=O)N[C@@H]1CN2CCC1CC2)c1ccccc1F	Kp at 2 h	1.1

====

# TEST: Oral bioavailability and brain penetration in mice
# Format: in vivo
# CONDITION SET: male, OF1/IC, mouse, plasma, po, 30 μmol/kg p.o., 0.25 hour
This listing pairs molecules with measured concentration at 0.25 h.

MOLECULE	concentration at 0.25 h, nM
c1cc2cc(-c3cnc(O[C@H]4CCN5CCC[C@@H]4C5)nc3)ccc2[nH]1 [Compound C-1]	1600
C[C@H]1[C@H](Oc2ccc(-c3ccc4[nH]ccc4c3)nn2)C2CCN1CC2 [Compound B-13]	2200

====

# TEST: Oral bioavailability and brain penetration in mice
# Assay type: in vivo
# CONDITION SET: male, OF1/IC, mouse, plasma, po, 30 μmol/kg p.o., 8 hour
This listing pairs molecules with measured concentration at 8 h.

COMPOUND STRING	concentration at 8 h
C[C@H]1[C@H](Oc2ccc(-c3ccc4[nH]ccc4c3)nn2)C2CCN1CC2	80 nM
c1cc2cc(-c3cnc(O[C@H]4CCN5CCC[C@@H]4C5)nc3)ccc2[nH]1	239 nM

====

# TEST: Oral bioavailability and brain penetration in mice
# Format: in vivo
# CONDITION SET: male, OF1/IC, mouse, plasma, po, 30 μmol/kg p.o., 1 hour
This listing pairs molecules with measured concentration at 1 h.
METRIC NAME: concentration at 1 h (µM)

COMPOUND STRING	MEASURED
c1cc2cc(-c3cnc(O[C@H]4CCN5CCC[C@@H]4C5)nc3)ccc2[nH]1	1.24
C[C@H]1[C@H](Oc2ccc(-c3ccc4[nH]ccc4c3)nn2)C2CCN1CC2	1.55

====

# EXPERIMENTAL SYSTEM: human α7-nAChR (Homo sapiens)
# Sequence (P36544 23-502): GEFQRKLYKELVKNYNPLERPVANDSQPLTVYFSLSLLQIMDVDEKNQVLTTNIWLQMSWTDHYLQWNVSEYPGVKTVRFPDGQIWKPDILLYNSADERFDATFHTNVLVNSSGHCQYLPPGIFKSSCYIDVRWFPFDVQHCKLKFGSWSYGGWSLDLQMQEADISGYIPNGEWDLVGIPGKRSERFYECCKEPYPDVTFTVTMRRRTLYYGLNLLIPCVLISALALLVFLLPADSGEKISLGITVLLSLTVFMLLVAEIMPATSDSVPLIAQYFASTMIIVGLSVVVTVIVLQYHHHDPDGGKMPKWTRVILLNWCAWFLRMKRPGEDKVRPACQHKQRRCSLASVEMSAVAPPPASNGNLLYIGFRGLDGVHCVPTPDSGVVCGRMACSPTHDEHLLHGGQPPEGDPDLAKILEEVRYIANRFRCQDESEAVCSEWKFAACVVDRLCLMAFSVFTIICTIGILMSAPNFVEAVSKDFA
# TEST: functional calcium (FLIPR) assay in GH3 cells recombinantly expressing human α7-nAChR
# CONDITION SET: GH3 cells expressing human α7-nAChR, calcium FLIPR; read-out: α7-nAChR activity Potency EC50
This listing pairs compounds with measured EC50.
METRIC NAME: EC50 (nM)

COMPOUND STRING	UNITS OF MEASURE	MEASURED
c1cc2cc(-c3cnc(O[C@H]4CCN5CCC[C@@H]4C5)nc3)ccc2[nH]1	nM	24
C[C@H]1[C@H](Oc2ccc(-c3ccc4[nH]ccc4c3)nn2)C2CCN1CC2	nM	13

====

This listing pairs compounds with measured Kp at 1 h.
# TEST: Oral bioavailability and brain penetration in mice
# Assay type: in vivo
# CONDITION SET: male, OF1/IC, mouse, brain, po, 30 umol/kg, 30 μmol/kg p.o., 1 hour, read-out: Ratio Brain/plasma

COMPOUND STRING	Kp at 1 h
C[C@H]1[C@H](Oc2ccc(-c3ccc4[nH]ccc4c3)nn2)C2CCN1CC2	1.89
c1cc2cc(-c3cnc(O[C@H]4CCN5CCC[C@@H]4C5)nc3)ccc2[nH]1	1.17
C[C@H](OC(=O)N[C@@H]1CN2CCC1CC2)c1ccccc1F	0.8

====

# TEST: Oral bioavailability and brain penetration in mice
# Type: in vivo
# CONDITION SET: male, OF1/IC, mouse, brain, po, 30 umol/kg, 30 μmol/kg p.o., 0.5 hour, read-out: Ratio Brain/plasma
This listing pairs molecules with measured Kp at 0.5 h.

COMPOUND STRING	Kp at 0.5 h
C[C@H]1[C@H](Oc2ccc(-c3ccc4[nH]ccc4c3)nn2)C2CCN1CC2	1.31
C[C@H](OC(=O)N[C@@H]1CN2CCC1CC2)c1ccccc1F	1.1
c1cc2cc(-c3cnc(O[C@H]4CCN5CCC[C@@H]4C5)nc3)ccc2[nH]1	0.41

====

# EXPERIMENTAL SYSTEM: human neuronal nAChR α4β2 (Homo sapiens, UniProt P17787+P43681)
# Sequence (P43681 29-627 limits assumed): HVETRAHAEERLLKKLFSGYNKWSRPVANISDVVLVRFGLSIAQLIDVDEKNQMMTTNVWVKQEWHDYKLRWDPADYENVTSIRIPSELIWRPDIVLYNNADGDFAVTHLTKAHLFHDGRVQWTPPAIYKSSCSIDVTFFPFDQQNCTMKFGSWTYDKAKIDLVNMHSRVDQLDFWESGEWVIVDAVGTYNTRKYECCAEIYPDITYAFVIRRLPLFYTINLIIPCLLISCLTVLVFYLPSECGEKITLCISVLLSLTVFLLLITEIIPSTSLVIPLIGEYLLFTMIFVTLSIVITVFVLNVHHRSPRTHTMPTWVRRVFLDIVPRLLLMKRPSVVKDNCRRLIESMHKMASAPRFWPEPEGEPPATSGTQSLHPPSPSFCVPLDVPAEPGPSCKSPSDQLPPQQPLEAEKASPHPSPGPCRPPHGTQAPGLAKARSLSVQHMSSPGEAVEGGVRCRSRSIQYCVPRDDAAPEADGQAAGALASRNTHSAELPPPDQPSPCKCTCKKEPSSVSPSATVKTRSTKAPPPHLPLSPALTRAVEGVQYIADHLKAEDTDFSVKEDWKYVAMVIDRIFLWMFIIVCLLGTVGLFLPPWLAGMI
# Sequence (P17787 26-502): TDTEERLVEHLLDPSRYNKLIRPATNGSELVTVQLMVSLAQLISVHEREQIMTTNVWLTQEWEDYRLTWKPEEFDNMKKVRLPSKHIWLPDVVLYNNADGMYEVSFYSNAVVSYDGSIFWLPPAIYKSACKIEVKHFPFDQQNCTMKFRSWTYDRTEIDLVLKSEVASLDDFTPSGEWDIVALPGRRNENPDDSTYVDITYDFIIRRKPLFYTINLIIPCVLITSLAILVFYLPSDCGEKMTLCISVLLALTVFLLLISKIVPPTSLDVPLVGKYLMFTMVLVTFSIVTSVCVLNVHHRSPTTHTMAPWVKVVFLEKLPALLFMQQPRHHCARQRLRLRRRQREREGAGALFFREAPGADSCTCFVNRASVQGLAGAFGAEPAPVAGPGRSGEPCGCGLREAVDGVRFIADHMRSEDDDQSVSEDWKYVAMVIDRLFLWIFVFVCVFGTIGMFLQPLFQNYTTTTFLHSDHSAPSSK
# TEST: similar functional assay in a human epithelial cell line stably expressing the human α4β2 subtype
This listing pairs compounds with measured IC50.
METRIC NAME: IC50

COMPOUND STRING	MEASURED
c1cc2cc(-c3cnc(O[C@H]4CCN5CCC[C@@H]4C5)nc3)ccc2[nH]1	9.33 µM
C[C@H]1[C@H](Oc2ccc(-c3ccc4[nH]ccc4c3)nn2)C2CCN1CC2	4.22 µM
C[C@H](OC(=O)N[C@@H]1CN2CCC1CC2)c1ccccc1F	23.4 µM

====

# TEST: Oral bioavailability and brain penetration in mice
# Type: in vivo
# CONDITION SET: male, OF1/IC, mouse, plasma, po, 30 μmol/kg p.o., 4 hour
METRIC NAME: concentration at 4 h

MOLECULE	MEASURED
C[C@H]1[C@H](Oc2ccc(-c3ccc4[nH]ccc4c3)nn2)C2CCN1CC2 [Compound B-13]	429 nM
c1cc2cc(-c3cnc(O[C@H]4CCN5CCC[C@@H]4C5)nc3)ccc2[nH]1 [Compound C-1]	762 nM

====

# EXPERIMENTAL SYSTEM: human neuronal nAChR α4β2 (Homo sapiens, UniProt P17787+P43681)
# TEST: similar functional assay in a human epithelial cell line stably expressing the human α4β2 subtype
# Experimental: Assay described in: D Feuerbach et al, Neuropharmacology (2005), 48, 215-227. To assess the activity of the compound of the invention on the human neuronal nAChR α4β2, a similar functional assay is carried out using a human epithelial cell line stably expressing the human α4β2 subtype (Michelmore et al., Naunyn-Schmiedeberg's Arch. Pharmacol. (2002) 366, 235),

COMPOUND STRING	EC50
C[C@H]1[C@H](Oc2ccc(-c3ccc4[nH]ccc4c3)nn2)C2CCN1CC2	> 100 µM
c1cc2cc(-c3cnc(O[C@H]4CCN5CCC[C@@H]4C5)nc3)ccc2[nH]1	> 100 µM

====

# TEST: Oral bioavailability and brain penetration in mice
# Format: in vivo
# CONDITION SET: male, OF1/IC, mouse, plasma, po, 30 μmol/kg p.o., 0.5 hour
# Method: Assay: Compounds were orally (30 μmol/kg) administered. Male mice (30-35 g, OF1/ICstrain) were sacrificed at indicated time points after oral administration. Trunk-blood was collected in EDTA-containing tubes and the brain was removed and immediately frozen on dry ice. To 100 μl plasma 10 μl internal standard (1.0 μmol of a compound with solubility and ionization properties similar to test compounds) was added and extracted three times with 500 μl dichloromethane. […]
METRIC NAME: concentration at 0.5 h

MOLECULE	MEASURED
C[C@H]1[C@H](Oc2ccc(-c3ccc4[nH]ccc4c3)nn2)C2CCN1CC2 [Compound B-13]	2260 nM
c1cc2cc(-c3cnc(O[C@H]4CCN5CCC[C@@H]4C5)nc3)ccc2[nH]1 [Compound C-1]	3410 nM
